Listed here are molecules together with their documented MIC.
Test system: Proteus mirabilis
Assay: Antibacterial activity against Proteus mirabilis NCIM 2241 assessed as growth inhibition after 24 hr by NCCLS broth dilution method
Assay type: functional
Conditions: NCIM 2241, 24 h
Your answer should be a plain number; it is taken to be in µg/mL.

NC(=S)NNc1nc(Nc2ccc([N+](=O)[O-])cc2)nc(N2CCN(C(=S)Nc3ccnc4cc(Cl)ccc34)CC2)n1 :: 12.5
O=[N+]([O-])c1ccc(Nc2nc(N3CCOCC3)nc(N3CCN(C(=S)Nc4ccnc5cc(Cl)ccc45)CC3)n2)cc1 :: 12.5

Any idea what its MIC is? The molecule is O=[N+]([O-])c1ccc(Nc2nc(Nc3ccc(O)cc3)nc(N3CCN(C(=S)Nc4ccnc5cc(Cl)ccc45)CC3)n2)cc1 50

For the molecule shown here, Cc1ccc(Nc2nc(Nc3ccc([N+](=O)[O-])cc3)nc(N3CCN(C(=S)Nc4ccnc5cc(Cl)ccc45)CC3)n2)cc1 , give the reported MIC. 3.12

Endpoint output: MIC of O=[N+]([O-])c1ccc(Nc2nc(Nc3ccccc3)nc(N3CCN(C(=S)Nc4ccnc5cc(Cl)ccc45)CC3)n2)cc1 . Value? 6.25

Item NCCCNc1nc(Nc2ccc([N+](=O)[O-])cc2)nc(N2CCN(C(=S)Nc3ccnc4cc(Cl)ccc34)CC2)n1 has what recorded MIC? 12.5

Request the reported MIC associated with NNc1nc(Nc2ccc([N+](=O)[O-])cc2)nc(N2CCN(C(=S)Nc3ccnc4cc(Cl)ccc34)CC2)n1.O 6.25

Quick one: MIC for Cc1ccccc1Nc1nc(Nc2ccc([N+](=O)[O-])cc2)nc(N2CCN(C(=S)Nc3ccnc4cc(Cl)ccc34)CC2)n1 ? 12.5

// lookup MIC for NC(=O)NNc1nc(Nc2ccc([N+](=O)[O-])cc2)nc(N2CCN(C(=S)Nc3ccnc4cc(Cl)ccc34)CC2)n1 6.25

Given the entry CC1COc2c(N3CCN(C)CC3)c(F)cc3c(=O)c(C(=O)O)cn1c23 (stereo not given) [OFLOXACIN] , report its measured MIC. 3.12

====

Test system: Proteus vulgaris
Assay: Antibacterial activity against Proteus vulgaris NCIM 2027 assessed as growth inhibition after 24 hr by NCCLS broth dilution method
Format: functional
Conditions: NCIM 2027, 24 h
Param label: returns Met when MIC < 10 µg/mL, returns Not met otherwise, including exact equality.

O=[N+]([O-])c1ccc(Nc2nc(Nc3ccccc3)nc(N3CCN(C(=S)Nc4ccnc5cc(Cl)ccc45)CC3)n2)cc1 :: Not met
Cc1ccc(Nc2nc(Nc3ccc([N+](=O)[O-])cc3)nc(N3CCN(C(=S)Nc4ccnc5cc(Cl)ccc45)CC3)n2)cc1 :: Not met

Confirm or reject: MIC of NC(=S)NNc1nc(Nc2ccc([N+](=O)[O-])cc2)nc(N2CCN(C(=S)Nc3ccnc4cc(Cl)ccc34)CC2)n1 lies strictly below 10 µg/mL Not met

I wonder whether NC(=O)NNc1nc(Nc2ccc([N+](=O)[O-])cc2)nc(N2CCN(C(=S)Nc3ccnc4cc(Cl)ccc34)CC2)n1 has MIC below 10 µg/mL. Can you tell? Met

====

Test system: Bacillus cereus
Assay: Antibacterial activity against Bacillus cereus NCIM 2156 assessed as growth inhibition after 24 hr by NCCLS broth dilution method
Assay type: functional
Conditions: NCIM 2156, 24 h
readout_kind: MIC (µg/mL)
Just the number please, in µg/mL, no unit attached.

Cc1ccccc1Nc1nc(Nc2ccc([N+](=O)[O-])cc2)nc(N2CCN(C(=S)Nc3ccnc4cc(Cl)ccc34)CC2)n1 :: 12.5
O=[N+]([O-])c1ccc(Nc2nc(Nc3ccc(O)cc3)nc(N3CCN(C(=S)Nc4ccnc5cc(Cl)ccc45)CC3)n2)cc1 :: 25

Report MIC for O=[N+]([O-])c1ccc(Nc2nc(N3CCOCC3)nc(N3CCN(C(=S)Nc4ccnc5cc(Cl)ccc45)CC3)n2)cc1 please. 3.12

Using the record for O=[N+]([O-])c1ccc(Nc2nc(Nc3ccccc3)nc(N3CCN(C(=S)Nc4ccnc5cc(Cl)ccc45)CC3)n2)cc1 , report its MIC. 3.12

Data request, read-out MIC, for Cc1ccc(Nc2nc(Nc3ccc([N+](=O)[O-])cc3)nc(N3CCN(C(=S)Nc4ccnc5cc(Cl)ccc45)CC3)n2)cc1 3.12

Which measured MIC value corresponds to CC1COc2c(N3CCN(C)CC3)c(F)cc3c(=O)c(C(=O)O)cn1c23 (stereo not given) [OFLOXACIN] ? 6.25

====

Test system: Proteus vulgaris
Experiment: Antibacterial activity against Proteus vulgaris NCIM 2027 assessed as growth inhibition after 24 hr by NCCLS broth dilution method
Format: functional
Settings: NCIM 2027, 24 h
readout_kind: MIC (µg/mL)
Kindly provide the numeric value in µg/mL only, without the unit symbol.

// solved cases for MIC follow
CC1COc2c(N3CCN(C)CC3)c(F)cc3c(=O)c(C(=O)O)cn1c23 (stereo unspecified) :: 3.12
O=[N+]([O-])c1ccc(Nc2nc(Nc3ccc(O)cc3)nc(N3CCN(C(=S)Nc4ccnc5cc(Cl)ccc45)CC3)n2)cc1 :: 50
NNc1nc(Nc2ccc([N+](=O)[O-])cc2)nc(N2CCN(C(=S)Nc3ccnc4cc(Cl)ccc34)CC2)n1.O :: 12.5

Requested field: MIC. Item: NCCCNc1nc(Nc2ccc([N+](=O)[O-])cc2)nc(N2CCN(C(=S)Nc3ccnc4cc(Cl)ccc34)CC2)n1 25

Recorded MIC of O=[N+]([O-])c1ccc(Nc2nc(N3CCOCC3)nc(N3CCN(C(=S)Nc4ccnc5cc(Cl)ccc45)CC3)n2)cc1 , please. 3.12

MIC for Cc1ccccc1Nc1nc(Nc2ccc([N+](=O)[O-])cc2)nc(N2CCN(C(=S)Nc3ccnc4cc(Cl)ccc34)CC2)n1 ? 25

====

System: Bacillus cereus
Test: Antibacterial activity against Bacillus cereus NCIM 2156 assessed as growth inhibition after 24 hr by NCCLS broth dilution method
Format: functional
Details: NCIM 2156, 24 h
Overview of recorded MIC for various compounds
Lab book: enter the figure in µg/mL, no units written.

What value of MIC has been reported for the following compound? NNc1nc(Nc2ccc([N+](=O)[O-])cc2)nc(N2CCN(C(=S)Nc3ccnc4cc(Cl)ccc34)CC2)n1.O 6.25

Find the recorded MIC belonging to NCCCNc1nc(Nc2ccc([N+](=O)[O-])cc2)nc(N2CCN(C(=S)Nc3ccnc4cc(Cl)ccc34)CC2)n1 and report it. 12.5

Fill in the blank: the reported MIC of NC(=O)NNc1nc(Nc2ccc([N+](=O)[O-])cc2)nc(N2CCN(C(=S)Nc3ccnc4cc(Cl)ccc34)CC2)n1 is ____. 6.25

Which MIC value is on record for NC(=S)NNc1nc(Nc2ccc([N+](=O)[O-])cc2)nc(N2CCN(C(=S)Nc3ccnc4cc(Cl)ccc34)CC2)n1 ? 3.12

Data provenance is ChEMBL document CHEMBL3045227.
